Target: SARS-CoV-1 spike protein (SARS-CoV-1, UniProt P59594 14-1195)
Assay: ELISA
assayMetric: IC50 (nM)
Answers are plain numbers, in nM.

1-L10-A (antibody, V domains shown) VH: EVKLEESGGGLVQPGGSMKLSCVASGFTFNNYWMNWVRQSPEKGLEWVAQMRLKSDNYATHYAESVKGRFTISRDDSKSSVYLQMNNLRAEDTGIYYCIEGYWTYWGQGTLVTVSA VL: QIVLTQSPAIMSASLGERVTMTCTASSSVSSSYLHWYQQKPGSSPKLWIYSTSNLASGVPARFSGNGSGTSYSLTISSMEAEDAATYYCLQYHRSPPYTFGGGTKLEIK; 7.5
6-O12-A (antibody, V domains shown) VH: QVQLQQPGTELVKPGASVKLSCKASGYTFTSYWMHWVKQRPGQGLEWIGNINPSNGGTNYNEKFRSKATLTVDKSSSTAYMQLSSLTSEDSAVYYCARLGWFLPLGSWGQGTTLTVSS VL: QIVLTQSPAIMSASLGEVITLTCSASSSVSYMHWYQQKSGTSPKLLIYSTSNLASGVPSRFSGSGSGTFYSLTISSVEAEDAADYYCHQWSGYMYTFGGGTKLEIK; 5.4

Which measured IC50 value corresponds to 2-G20-A (antibody, V domains shown) VH: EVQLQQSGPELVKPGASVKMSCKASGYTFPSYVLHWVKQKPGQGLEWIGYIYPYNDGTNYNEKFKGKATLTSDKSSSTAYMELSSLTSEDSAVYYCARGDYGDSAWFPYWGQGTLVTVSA VL: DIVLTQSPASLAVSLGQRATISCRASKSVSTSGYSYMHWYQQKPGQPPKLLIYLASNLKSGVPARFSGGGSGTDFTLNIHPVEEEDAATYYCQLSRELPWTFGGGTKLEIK ?
6.65
